tested on: Aspergillus fumigatus NCPF2010; experiment: Broth microdilution assay (modified EUCAST); format: cell-based; conditions: Aspergillus fumigatus, NCPF2010, read-out: MIC75 against Aspergillus fumigatus isolate NCPF2010
observation type: MIC (µM)

{"molecular string": "Cc1cc(N2CCN(c3ccc(C(=O)Nc4ccc(C#N)cc4)cc3)CC2)ccc1OC[C@@H]1CO[C@@](Cn2cncn2)(c2ccc(F)cc2F)C1", "experimental result": 0.0291}
{"molecular string": "O=C(Nc1ccc(F)cc1)c1ccc(N2CCN(c3ccc(OC[C@@H]4CO[C@@](Cn5cncn5)(c5ccc(F)cc5F)C4)c(CO)c3)CC2)cc1", "experimental result": 0.00512}
{"molecular string": "Cc1cc(N2CCN(c3ccc(C(=O)Nc4cc(F)ccc4F)cc3)CC2)ccc1OC[C@@H]1CO[C@@](Cn2cncn2)(c2ccc(F)cc2F)C1", "experimental result": 0.0311}
